SYSTEM: NS5B from the BK strain (genotype 1b) (Hepatitis C virus genotype 1b)
Construct: NS5B from the BK strain (genotype 1b) is expressed in E. coli as a protein in which the 21 C-terminal amino acids are replaced; made in house; host or cells: E. coli
Sequence (P26663 2420-2989): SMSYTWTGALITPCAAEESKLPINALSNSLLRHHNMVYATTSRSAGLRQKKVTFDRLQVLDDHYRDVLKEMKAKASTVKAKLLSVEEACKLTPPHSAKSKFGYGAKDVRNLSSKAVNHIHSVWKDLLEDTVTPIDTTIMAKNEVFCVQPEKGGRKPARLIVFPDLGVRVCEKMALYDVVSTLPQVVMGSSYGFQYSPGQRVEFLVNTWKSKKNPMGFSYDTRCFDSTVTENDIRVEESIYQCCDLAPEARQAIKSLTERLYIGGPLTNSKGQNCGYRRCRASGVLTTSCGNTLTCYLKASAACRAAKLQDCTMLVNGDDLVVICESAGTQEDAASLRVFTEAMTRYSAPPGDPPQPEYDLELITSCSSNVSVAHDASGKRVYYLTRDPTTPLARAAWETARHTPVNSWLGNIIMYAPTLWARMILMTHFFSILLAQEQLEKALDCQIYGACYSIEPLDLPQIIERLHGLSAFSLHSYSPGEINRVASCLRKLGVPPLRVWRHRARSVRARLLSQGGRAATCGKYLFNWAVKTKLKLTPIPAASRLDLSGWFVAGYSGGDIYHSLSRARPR
TEST_SUMMARY: Hepatitis C polymerase inhibition, NS5B BK strain, 33P-GTP filter assay
Assay type: biochemical
ASSAY_CONDITIONS: Table 1A; NS5B BK strain; read-out: HCV pol BK IC50
Each item that follows carries a reported IC50.
ASSAY_METRIC: IC50

compound="CCCC1(CC(=O)O)OCCc2c1[nH]c1cccc(C#N)c21 (stereo not shown)" value="6.9 µM"
compound="CCCC1(CC(=O)O)OCCc2c1[nH]c1c(C)ccc(C(N)=O)c21 (stereo not shown)" value="> 20 µM"
compound="CC(C)C1(CC(=O)O)OCCc2c1[nH]c1c(Br)cccc21 (stereo not shown)" value="> 20 µM"
compound="O=C(O)CC1(c2ccoc2)OCCc2c1[nH]c1cccc(Br)c21 (stereo not shown)" value="> 20 µM"
compound="O=C(O)CC1(c2ccccc2)OCCc2c1[nH]c1c(Cl)cc(Cl)c(Cl)c21 (stereo not shown)" value="> 20 µM"
compound="CCCC1(CC(=O)O)OCCc2c1[nH]c1c(-c3cccc(N)c3)cccc21 (stereo not shown)" value="> 20 µM"
compound="O=C(O)CC1(c2cccc([N+](=O)[O-])c2)OCCc2c1[nH]c1cccc(Br)c21 (stereo not shown)" value="> 20 µM"
compound="CCCC1(CC(=O)O)OCCc2c1[nH]c1cccc(-c3ccccc3)c21 (stereo not shown)" value="> 20 µM"
compound="O=C(O)CC1(c2ccccc2F)OCCc2c1[nH]c1cccc(Br)c21 (stereo not shown)" value="> 20 µM"
compound="CCC1(CC(=O)O)OCCc2c1[nH]c1c(C)ccc(C)c21 (stereo not shown)" value="> 20 µM"
compound="CCCCC1(CC(=O)O)OCCc2c1[nH]c1c(F)cc(F)c(C#N)c21 (stereo not shown)" value="1.2 µM"
compound="CCCCC1(CC(=O)O)OCCc2c1[nH]c1c(C(F)(F)F)cccc21 (stereo not shown)" value="> 20 µM"
compound="Cc1cc(F)c(C#N)c2c3c([nH]c12)C(CC(=O)O)(C(C)C)OCC3 (stereo not shown)" value="0.58 µM"
compound="CC(C)C1(CC(=O)O)OCCc2c1[nH]c1c(Cl)ccc(Cl)c21 (stereo not shown)" value="7 µM"
compound="CC1(CC(=O)O)OCCc2c1[nH]c1c(F)ccc(F)c21 (stereo not shown)" value="> 20 µM"
compound="CCCC1(CC(=O)O)OCCc2c1[nH]c1c(-c3ccccc3)cccc21 (stereo not shown)" value="> 20 µM"
compound="C/C=C/CCC1(CC(=O)O)OCCc2c1[nH]c1c(Br)cccc21 (stereo not shown)" value="> 20 µM"
compound="CC1(CC(=O)O)OCCc2c1[nH]c1c(Cl)cc(Cl)c(Cl)c21 (stereo not shown)" value="22.4 µM"
compound="Cc1cc(F)c2[nH]c3c(c2c1C#N)CCOC3(C)CC(=O)O (stereo not shown)" value="> 5 µM"
